biological target: D(1A) dopamine receptor (Homo sapiens); assay: Allosteric Agonists of the Human D1 Dopamine Receptor: qHTS; details: HEK293 T-REx D1 cells, calcium flux, agonist mode; at 2 µM; hits give high values
About 3,700 (1%) of roughly 360,000 compounds were called active. The full list was thinned out, with actives kept by preference.
Rule: activation of 10% or more gives Met; anything lower gives Not met.

>>> label_value("Cc1cc(C)cc(NC(c2nnc(-c3cccc(F)c3)o2)c2ccc(F)cc2Cl)c1 (stereo not given)")
"Not met"
>>> label_value("COc1cc(C(=O)NCc2ccc(-n3cccc3)cc2)cc(OC)c1OC")
"Not met"
>>> label_value("CCn1cc(CN2CCC(C(=O)Nc3cccc(-c4cccc(Cl)c4)c3)CC2)c(C)n1")
"Met"
>>> label_value("COc1cc(C(=O)NCc2ccncc2)cc(Br)c1OCc1ccccc1")
"Met"
>>> label_value("CCn1cc(CN2CCC(C(=O)Nc3cccc(-c4cccc(Cl)c4)c3)CC2)cn1")
"Met"
